- System: Human papillomavirus type 1a protein E7 (residues 44-93)
- method_description: HPV1a E7 fragment binders on microarrays, primary screen, biochemical, small-molecule microarray, residues 44-93, 635 nm fluorescence (AID 1108);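 note: E7 fragment applied at 1 µg/mL in TBST for 1 h at 4 C; score combines spot fluorescence with its signal to noise ratio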
- setup_conditions: small-molecule microarray binding, fluorescence 635 nm; higher = more signal
measurement_name: composite z-score
Write no unit; give the number alone.

Which composite z-score is reported for this compound? COC(=O)C=C(CC(O)c1cccc(Cl)c1)OC (stereo not drawn)
-0.734

Subsequent entry: O=C(NCC(F)(F)F)[C@@H]1c2ccccc2C(=O)N(C2CCCCC2)[C@H]1c1ccc(CO)cc1
0.268

Subsequent entry: CCOC1=C2C(CN(S(=O)(=O)c3ccc(C)cc3)C2c2ccc(C)cc2)C2C(=O)N(c3ccccc3)C(=O)C2C1 (stereo not drawn)
1.11

Subsequent entry: CCCC=C(CCC)[C@@H](NC(=O)Oc1ccc(F)cc1)c1ccc(C(=O)OC)cc1
1.32

Subsequent entry: C=CCNC(=O)[C@@H]1[C@H]2C(=O)O[C@H](c3ccccc3)[C@H](c3ccccc3)N2[C@H](c2ccc(OCCO)cc2)[C@@]12C(=O)Nc1ccc(C#CCCO)cc12
1.32

Subsequent entry: COc1ccc(C(O)C2C=CC3C(=O)N(c4ccccc4)C(=O)C3N2Nc2ccccc2F)cc1OCc1ccccc1 (stereo not drawn)
1.4

Subsequent entry: C=CCNC(=O)[C@H]1[C@@H]2C(=O)O[C@@H](c3ccccc3)[C@@H](c3ccccc3)N2[C@@H](c2ccccc2OCCO)[C@]12C(=O)Nc1ccc(C#CC3=CCCCC3)cc12
1.12

Subsequent entry: CCOC(=O)C[C@H]1[C@H](OC(=O)Cc2ccc3c(c2)OCO3)[C@@H](NC(=O)c2ccc(-c3ccccc3)cc2)c2cc(OCCCO)ccc2N1C(=O)Cc1ccc(OC)cc1
0.911

----------
- target_or_test_system: Follistatin-related protein 3 (Homo sapiens)
- method_description: FSTL3 binders on small-molecule microarrays, primary screen, biochemical, small-molecule microarray, 635 nm fluorescence (AID 1105);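 note: score merges emission near 667 nm and signal to noise per printed spot across three slides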
- setup_conditions: FSTL3 binding, higher = more signal
For each of the compounds below, state its composite z-score.

Which composite z-score is reported for this compound? COCCCNC(=O)[C@@]1(Cc2ccccc2)N=C(c2ccc(OCCCO)cc2)O[C@H]1c1ccccc1
-0.569

Subsequent entry: COC(=O)[C@@]1(Cc2ccc(F)cc2)[C@H]2c3cc(C(=O)N(C)C)n(CC4CC4)c3C[C@H]2CN1C(=O)c1ccccc1
1.18

Subsequent entry: [N-]=[N+]=Nc1ccccc1[C@H]1OC(c2ccc(OCCCO)cc2)=N[C@@]1(Cc1ccccc1)C(=O)O
0.727

Subsequent entry: CC(C)N1C(=O)[C@@]2(Cc3ccccc31)c1ccccc1C(=O)N(C1CCCCC1)[C@H]2c1ccc(CO)cc1
1.17

----------
- System: Human papillomavirus type 1a protein E7 (residues 44-93)
- method_description: HPV1a E7 fragment binders on microarrays, primary screen, biochemical, small-molecule microarray, residues 44-93, 635 nm fluorescence (AID 1108);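 note: E7 fragment applied at 1 µg/mL in TBST for 1 h at 4 C; score combines spot fluorescence with its signal to noise ratio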
- setup_conditions: small-molecule microarray binding, fluorescence 635 nm; higher = more signal
measurement_name: composite z-score
Write no unit; give the number alone.

Which composite z-score is reported for this molecule? CC(C)OC(=O)C=C1C[C@@H](c2ccccc2C(F)(F)F)O[C@@H](c2ccccc2C(F)(F)F)O1
0.706

Subsequent entry: COC(=O)c1c(CC[C@@H](CO)NC(=O)N[C@H](Cn2cc(Cc3ccccc3)nn2)C(C)C)oc(C(C)=O)c1C(=O)OC
0.712

Subsequent entry: [N-]=[N+]=Nc1ccccc1[C@H]1OC(c2ccc(OCCCO)cc2)=N[C@@]1(Cc1ccccc1)C(=O)O
1.46

Subsequent entry: COc1ccc(C(O)C2C=CC3C(=O)NC(=O)C3N2Nc2ccccn2)cc1 (stereo not given)
-1.08

Subsequent entry: O=C1O[C@H](c2ccccc2)[C@H](c2ccccc2)N2[C@H]1[C@@H](C(=O)N1CCN(c3ncccn3)CC1)[C@]1(C(=O)Nc3ccc(C#CC4=CCCCC4)cc31)[C@H]2c1ccc(O)cc1
1.41

Subsequent entry: [N-]=[N+]=NCc1ccccc1C[C@]1(C(=O)NCC(O)CO)N=C(c2ccc(OCCCO)cc2)O[C@H]1c1ccccc1 (stereo not given in full)
0.722

Subsequent entry: COCCOC(=O)N1C(=O)[C@@]2(c3cc(C#Cc4ccc(OC)cc4)ccc31)[C@H](C(=O)N1CCCCCCC1)[C@H]1C(=O)O[C@H](c3ccccc3)[C@H](c3ccccc3)N1[C@@H]2c1ccc(OCCO)cc1
0.114

Subsequent entry: CC(C)N1C(=O)c2ccccc2[C@](C)(C(=O)NCc2ccccc2)[C@@H]1c1ccc(CO)cc1
-0.375

Subsequent entry: CCCC#C[Si](O[C@H](CC)c1cn([C@H](CO)Cc2ccccc2)nn1)(C(C)C)C(C)C
1.08

Subsequent entry: C=CC[C@@]1(C(=O)NCc2ccccc2)N=C(c2ccc(OCCCO)cc2)O[C@@H]1c1ccccc1N=[N+]=[N-]
1.25

Subsequent entry: COC(=O)[C@@]1(Cc2ccccc2)[C@H]2c3cc(C(=O)N4CCCC4)n(Cc4nc5ccccc5[nH]4)c3C[C@H]2CN1C(=O)c1ccccc1
1.43

Subsequent entry: [N-]=[N+]=NCc1ccccc1C[C@@]1(C(=O)NCC(O)CO)N=C(c2ccc(OCCCO)cc2)O[C@@H]1c1ccccc1N=[N+]=[N-] (stereo not given in full)
1.39

Subsequent entry: O=C1OCC=C[C@H]2OC34C=CCN(CCN5CCOCC5)C(=O)[C@H]3N(CCCO)C(=O)[C@@H]4[C@@H]12 (stereo not given in full)
0.449

Subsequent entry: C[N+](C)(C)CCCCNC(=O)[C@H]1C[C@H]2C(=O)N[C@@H](Cc3ccccc3)C(=O)N2[C@H]1c1ccc(O)cc1
-0.0021

Subsequent entry: CCCC[C@H]1OB(O)C[C@H]2C1=C(COc1ccccc1)C[C@H]1C(=O)N(C)C(=O)[C@H]12
-0.121
